tested on: Mus musculus; test: Drug concentration in blood sample was analyzed by reversed phase HPLC 30 min (c30) after oral application of 120 mg/kg in a standardized formulation; assay type: functional
reported endpoint: c30 (µM)

>  <smiles structure>
COC(=O)N[C@H](C(=O)N[C@@H](Cc1ccccc1)[C@@H](O)CN(Cc1ccc(-c2cncs2)cc1)NC(=O)[C@@H](NC(=O)OC)C(C)C)C(C)C

>  <target or system>
Mus musculus

>  <reported result>
1.8

$$$$
>  <smiles structure>
COC(=O)N[C@H](C(=O)N[C@@H](Cc1ccccc1)[C@@H](O)CN(Cc1ccc(-c2nnn(C(C)(C)C)n2)cc1)NC(=O)[C@@H](NC(=O)OC)C(C)(C)C)C(C)(C)C

>  <target or system>
Mus musculus

>  <reported result>
4.2

$$$$
>  <smiles structure>
COC(=O)N[C@H](C(=O)N[C@@H](Cc1ccccc1)[C@@H](O)CN(Cc1ccc(-c2ccccn2)cc1)NC(=O)[C@@H](NC(=O)OC)C(C)(C)C)C(C)C

>  <target or system>
Mus musculus

>  <reported result>
13.8

$$$$
>  <smiles structure>
CCN(CC)c1ccc(CN(C[C@H](O)[C@H](Cc2ccccc2)NC(=O)[C@@H](NC(=O)OC)C(C)(C)C)NC(=O)[C@@H](NC(=O)OC)C(C)(C)C)cc1

>  <target or system>
Mus musculus

>  <reported result>
11.8

$$$$
>  <smiles structure>
COC(=O)N[C@H](C(=O)NN(Cc1ccc(-c2ccccn2)cc1)C[C@H](O)[C@H](Cc1ccccc1)NC(=O)[C@@H](NC(=O)OC)C(C)(C)C)C(C)C

>  <target or system>
Mus musculus

>  <reported result>
15.3

$$$$
>  <smiles structure>
CCOC(=O)N[C@H](C(=O)NN(Cc1ccc(-c2ccccn2)cc1)C[C@H](O)[C@H](Cc1ccccc1)NC(=O)[C@@H](NC(=O)OC)C(C)C)C(C)C

>  <target or system>
Mus musculus

>  <reported result>
0.5

$$$$
